- Tested system: CDK7/CycH/MNAT1 (Homo sapiens (Human))
- Assay overview: Biochemical Assay for CDK7 (TR-FRET kinase assay)
- Stated conditions: 10 μM compound; 60 min pre-incubation with kinase; 1 mM ATP

# Compound, inhibition at 10 µM / %
records = [
    ("C=CC(=O)Nc1ccc(-c2cccc(C(C)C(=O)Nc3cc(C4CC4)[nH]n3)c2)cc1F (stereo not shown)", 97),
    ("CC(C(=O)Nc1cc(C2CC2)[nH]n1)c1cccc(C2CCN(C(=O)/C=C/CN(C)C)CC2)c1 (stereo not shown)", 74),
    ("CC(C(=O)Nc1cc(C2CC2)[nH]n1)c1cccc(-c2ccc(NC(=O)/C=C/CN3CC[C@H](F)C3)nc2)c1 (stereo partly shown) [Compound 46]", 95),
    ("CCc1cc(NC(=O)C(C)c2cccc(-c3ccc(NC(=O)/C=C/CN(C)C)cc3)c2)n[nH]1 (stereo not shown)", 92),
    ("CC(C(=O)Nc1cc(C2CC2)[nH]n1)c1cccc(-c2ccc(NC(=O)/C=C/CN3CCCC3)nc2)c1 (stereo not shown)", 91),
    ("C=CC(=O)Nc1ccc(-c2cccc(C(C)C(=O)Nc3cc(C4CC4)[nH]n3)c2)cc1 (stereo not shown)", 95),
    ("CC(C(=O)Nc1cc(C2CCCC2)[nH]n1)c1cccc(-c2ccc(NC(=O)/C=C/CN(C)C)c(F)c2)c1 (stereo not shown)", 96),
]

----------
- Tested system: CDK7/CycH/MNAT1 (Homo sapiens (Human))
- Assay overview: Biochemical Assay for CDK7 (TR-FRET kinase assay)
- Stated conditions: 10 μM compound; 60 min pre-incubation with kinase; 1 mM ATP

# Compound, inhibition at 10 µM (%)
records = [
    ("CC(C(=O)Nc1cc(C2CC2)[nH]n1)c1cccc(-c2ccc(NC(=O)/C=C/CN(C)C)cc2F)c1 (stereo not shown)", 80),
    ("C=CC(=O)NCc1ccc(-c2cccc(C(C)C(=O)Nc3cc(C4CC4)[nH]n3)c2)cn1 (stereo not shown)", 79),
    ("C[C@H](C(=O)Nc1cc(C2CC2)[nH]n1)c1cccc(-c2ccc(NC(=O)/C=C/CN3CCOCC3)nc2)c1", 100),
    ("C=CC(=O)Nc1ccc(-c2cccc(C(C)C(=O)Nc3cc(C4CC4)[nH]n3)c2)c(OC)c1 (stereo not shown)", 91),
    ("CC(C(=O)Nc1cc(C2CC2)[nH]n1)c1cccc(-c2ccc(NC(=O)/C=C/CN3CCCC3)c(F)c2)c1 (stereo not shown)", 97),
    ("CN(C)C/C=C/C(=O)Nc1ccc(C(=O)Nc2cccc(Nc3n[nH]c4ccccc34)c2)cc1", 45),
    ("C=CC(=O)Nc1ccc(-c2cccc(C(C)C(=O)Nc3cc(C4CC4)[nH]n3)c2)nc1 (stereo not shown)", 96),
]

----------
- Tested system: CDK7/CycH/MNAT1 (Homo sapiens (Human), UniProt P50613)
- Sequence (P50613 whole entry): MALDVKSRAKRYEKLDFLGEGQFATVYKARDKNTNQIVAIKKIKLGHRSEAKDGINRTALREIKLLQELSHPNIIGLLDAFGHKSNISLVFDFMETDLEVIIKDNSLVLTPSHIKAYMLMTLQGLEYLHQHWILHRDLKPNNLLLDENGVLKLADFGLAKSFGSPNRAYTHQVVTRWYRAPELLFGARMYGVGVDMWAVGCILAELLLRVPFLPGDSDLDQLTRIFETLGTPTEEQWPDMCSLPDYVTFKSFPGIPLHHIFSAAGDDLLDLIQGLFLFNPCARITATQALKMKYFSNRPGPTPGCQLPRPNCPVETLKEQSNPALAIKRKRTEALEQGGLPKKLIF
- Sequence (P51946 whole entry partner): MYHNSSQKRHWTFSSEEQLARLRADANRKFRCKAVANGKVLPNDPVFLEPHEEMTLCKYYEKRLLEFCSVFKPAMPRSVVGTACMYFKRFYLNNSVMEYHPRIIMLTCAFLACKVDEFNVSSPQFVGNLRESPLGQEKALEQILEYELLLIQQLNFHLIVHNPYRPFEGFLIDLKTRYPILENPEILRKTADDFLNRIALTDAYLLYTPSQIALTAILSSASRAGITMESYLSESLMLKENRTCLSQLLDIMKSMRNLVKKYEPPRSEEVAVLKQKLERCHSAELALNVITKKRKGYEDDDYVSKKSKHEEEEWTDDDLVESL
- Sequence (P51948 whole entry partner): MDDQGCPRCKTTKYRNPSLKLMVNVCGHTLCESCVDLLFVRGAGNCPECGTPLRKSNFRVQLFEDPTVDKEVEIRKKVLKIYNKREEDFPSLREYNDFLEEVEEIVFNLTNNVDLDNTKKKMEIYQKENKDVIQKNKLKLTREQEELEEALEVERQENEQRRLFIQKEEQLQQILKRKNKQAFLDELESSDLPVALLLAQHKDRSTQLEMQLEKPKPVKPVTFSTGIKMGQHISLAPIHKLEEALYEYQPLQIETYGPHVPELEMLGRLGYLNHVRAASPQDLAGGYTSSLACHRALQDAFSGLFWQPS
- Assay overview: Biochemical Assay for CDK7 (TR-FRET kinase assay)
- Stated conditions: 10 μM compound; 60 min pre-incubation with kinase; 1 mM ATP
Property label: inhibition at 10 µM (%)

# Compound, Property label, Reported value
data = [
    ("C=CC(=O)N1CCc2cc(-c3cccc(C(C)C(=O)Nc4cc(C5CC5)[nH]n4)c3)ccc21 (stereo not drawn) [Compound 76]", "inhibition at 10 µM", 98),
    ("COCCN(C)C/C=C/C(=O)Nc1ccc(-c2cccc(C(C)C(=O)Nc3cc(C4CC4)[nH]n3)c2)cn1 (stereo not drawn) [Compound 68]", "inhibition at 10 µM", 95),
    ("C=CC(=O)Nc1ccc(-c2cc(C(C)C(=O)Nc3cc(C4CC4)[nH]n3)ccc2F)cc1F (stereo not drawn) [Compound 23]", "inhibition at 10 µM", 98),
    ("CC(C)C(C(=O)Nc1cc(C2CC2)[nH]n1)c1cccc(-c2ccc(NC(=O)/C=C/CN(C)C)cn2)c1 (stereo not drawn) [Compound 36]", "inhibition at 10 µM", 98),
    ("CC(C(=O)Nc1cc(C2CC2)[nH]n1)c1cccc(-c2ccc(NC(=O)/C=C/CN3CC[C@H](F)C3)c(F)c2)c1 (stereo partly drawn) [Compound 80]", "inhibition at 10 µM", 95),
    ("CC(C(=O)Nc1cc(C2CC2)[nH]n1)c1cccc(-c2ccc(NC(=O)/C=C/CN3CCC(C#N)C3)nc2)c1 (stereo not drawn) [Compound 78]", "inhibition at 10 µM", 100),
    ("C=CC(=O)Nc1ccc(-c2cccc(CC(=O)Nc3cc(C)[nH]n3)c2)cc1 [Compound 86]", "inhibition at 10 µM", 48),
    ("CC(C(=O)Nc1cc(C2CC2)[nH]n1)c1cccc(-c2ccc3c(c2)CCN3C(=O)/C=C/CN(C)C)c1 (stereo not drawn) [Compound 29]", "inhibition at 10 µM", 97),
    ("C=CC(=O)Nc1ccc(-c2cccc(C(CC)C(=O)Nc3cc(C4CC4)[nH]n3)c2)cc1F (stereo not drawn) [Compound 27]", "inhibition at 10 µM", 98),
    ("C=CC(=O)Nc1ccc(-c2cccc(C(C(=O)Nc3cc(C4CC4)[nH]n3)C(C)C)c2)cc1F (stereo not drawn) [Compound 25]", "inhibition at 10 µM", 97),
    ("CC(C(=O)Nc1cc(C2CC2)[nH]n1)c1cccc(C2=CCN(C(=O)/C=C/CN(C)C)CC2)c1 (stereo not drawn) [Compound 84]", "inhibition at 10 µM", 88),
    ("C=CC(=O)Nc1ccc(-c2cccc(C(CC)C(=O)Nc3cc(C4CC4)[nH]n3)c2)nc1 (stereo not drawn) [Compound 26]", "inhibition at 10 µM", 96),
    ("CC(C)(C(=O)Nc1cc(C2CC2)[nH]n1)c1cccc(-c2ccc(NC(=O)/C=C/CN3CCCC3)nc2)c1 [Compound 95]", "inhibition at 10 µM", 71),
    ("CC(C(=O)Nc1cc(C2CC2)[nH]n1)c1cccc(-c2ccc(NC(=O)/C=C/CN3CCOCC3)cn2)c1 (stereo not drawn) [Compound 35]", "inhibition at 10 µM", 86),
    ("C=CC(=O)Nc1cncc(-c2cccc(C(C)C(=O)Nc3cc(C4CC4)[nH]n3)c2)n1 (stereo not drawn) [Compound 79]", "inhibition at 10 µM", 102),
]
